biological target: Aurora kinase B (Homo sapiens, UniProt Q96GD4); assay: Inhibition of recombinant Aurora B using tetra(LRRWSLG) as substrate assessed as inhibition of [33P]Phosphate incorporation into substrate after 80 mins by scintillation counting
Sequence (Q96GD4 whole entry): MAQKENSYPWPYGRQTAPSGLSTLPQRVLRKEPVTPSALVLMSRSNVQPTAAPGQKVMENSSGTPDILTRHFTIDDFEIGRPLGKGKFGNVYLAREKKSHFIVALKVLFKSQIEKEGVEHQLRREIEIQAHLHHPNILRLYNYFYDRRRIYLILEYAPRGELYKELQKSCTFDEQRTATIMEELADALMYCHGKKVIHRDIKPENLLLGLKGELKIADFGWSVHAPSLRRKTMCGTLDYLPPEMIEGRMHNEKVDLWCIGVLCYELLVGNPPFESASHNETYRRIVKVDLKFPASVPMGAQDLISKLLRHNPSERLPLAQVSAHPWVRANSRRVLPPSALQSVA
measurement-label: IC50

Worked cases, IC50 given:
Cn1c(-c2ccnc(Nc3ccc(N4CCOCC4)cc3)n2)nc2ccccc21 :: > 100 µM
CCOc1ccc(Nc2nccc(-c3nc4ccccc4n3C)n2)cc1 :: > 100 µM

Now, please, on to the next compound.
Inquiry: What value of measured IC50 is listed for Cn1c(-c2ccnc(Nc3ccccc3)n2)nc2ccccc21 ?
Reply text: > 100 µM
